Known CDK2 HIBIT Protein Quantification Maximum of a selection of compounds
- study.system: CDK2 (Homo sapiens, UniProt P24941)
- Construct: host or cells: HEK293-CDK2-Hibit
- assay.notes: HiBit Assay Protocol for CDK2 (HIBIT protein quantification, degradation)
- Assay type: cell-based
- assay.context: HEK293-CDK2-Hibit cells, compound treatment for 6 hours

# compound, observed.measurement
measured = [
    ("CC(c1cc(S(=O)(=O)N2CC[C@H](Nc3ncc4c(n3)N([C@@H]3CCC[C@@H](O)C3)C(=O)C43CC3)[C@H](F)C2)ccc1F)N1CCC(c2ccc3c(N4CCC(=O)NC4=O)nn(C)c3c2)CC1 (single isomer, unassigned) [Compound 200]", "89%"),
]

Next item in the queue.
The recorded CDK2 HIBIT Protein Quantification Maximum with CDK2 (Homo sapiens, UniProt P24941) for CC1CCCC1N1C(=O)C2(CC2)c2cnc(NC3CCN(S(=O)(=O)C4CCCN(C(=O)CCCCCc5ccc6c(c5)n(C)c(=O)n6C5CCC(=O)NC5=O)C4)CC3)nc21 (centres unmarked) [Compound 82] was 26%
